Target: T1, ZFP SBS#1308 (synthetic)
T1 chain: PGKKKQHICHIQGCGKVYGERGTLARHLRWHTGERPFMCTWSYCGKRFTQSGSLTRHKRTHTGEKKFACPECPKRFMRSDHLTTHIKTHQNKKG
Assay: EMSA
Settings: tags: MBP fusion
readout type: Kd
Your reply should be a number followed by the unit it is expressed in.

Briefly, Kd measured for TGGGCAGCC (dsDNA) DNA 1: TGGGCAGCC DNA 2: GGCTGCCCA : 305 pM
